# credit: patent US20250250357A1

# test_system: T1, human MSLN-R3-his protein (human, UniProt Q13421 487-598)
# T1 construct: Region 3 of human mesothelin, made in HEK293E cells, His-tagged; also called human MSLN-R3 protein; hMSLN-R3-his; not shown: His tag
# T1 sequence (Q13421 495-606): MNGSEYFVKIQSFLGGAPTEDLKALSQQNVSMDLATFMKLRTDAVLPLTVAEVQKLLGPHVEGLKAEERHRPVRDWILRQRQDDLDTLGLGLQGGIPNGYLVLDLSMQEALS
# procedure_text: ELISA on coated MSLN-R3; antibody 0.0001 nM
endpoint_label: OD450 (OD450)
# number only, unit OD450 dropped from output

S009-F8-12.13 (antibody, human IgG1, kappa, V domains shown) VH: QVQLQQPGAELVKPGASVKLSCKASGYTFTSYWMHWVKQRPGQGLEWIGMIHPNSGSTNYNEKFKSKATLTVDKSSSTAYMQLSSLTSEDSAVYYCARRTPIITLVGHWYFDVWGTGTTVTVSS VL: DIVMTQSHKFMSTSVGDRVSITCKASQDVGTAVAWYQQKPGQSPKLLIYWASTRHTGVPDRFTGSGSGTDFTLTISNVQSEDLADYFCQQYSSYPLTFGAGTKLELKR	0.04
Tab106 (YP218, hIgG1) (antibody, V domains shown, also called YP218 human IgG1 antibody) VH: QQQLEESGGGLVKPEGSLTLTCKASGFDLGFYFYACWVRQAPGKGLEWIACIYTAGSGSTYYASWAKGRFTISKASSTTVTLQMTSLAAADTATYFCARSTANTRSTYYLNLWGPGTLVTVSS VL: DVVMTQTPASVSEPVGGTVTIKCQASQRISSYLSWYQQKPGQRPKLLIFGASTLASGVPSRFKGSGSGTEYTLTISDLECADAATYYCQSYAYFDSNNWHAFGGGTEVVVRT	0.09

Please look at the following binder next.
Fill in the blank: the reported OD450 of S009-F8-9.16 (antibody, human IgG1, kappa, V domains shown) VH: EVHLQQSGPVLVKPGASVKMSCKASGYTFTDYFMNWVKQSHGKSLEWIGVINPHNGYVNYNQKFQGRATLTVDKSSSTVYMELNSLTSEDSAVYHCARSAESAWFAYWGQRTLVTVSA VL: DVLMTQTPLSLPVSLGDQVSISCRSSQSIVHVKGNTYLEWYLQKPGQSPELLIYKVSNRFSGVPDRFSGGGSGTDFTLKISRVEPEDLGVYYCFQGSHLPYTFGGGTKLEIKR is ____.
0.06
